READOUT_LABEL: melting point

[Q] # query: melting point of entry O=C(NCCCc1ccccc1)c1ccc([N+](=O)[O-])cc1 [Compound 10, 4-Nitro-N-(3-phenylpropyl)benzamide]
[A] 95 to 97 °C

[Q] Ok, now O=C(NCCCn1ccnc1)c1ccc([N+](=O)[O-])cc1
[A] 152 to 154 °C

[Q] Ok, now O=C(NCCCn1ccnc1)c1ccc(F)cc1
[A] 70 to 72 °C

[Q] Ok, now CS(=O)(=O)NCCCn1ccnc1
[A] 89 to 91 °C

[Q] Ok, now O=S(=O)(NCCCn1ccnc1)c1ccc(F)cc1
[A] 121 to 123 °C

----------
Below are compounds with their Ki as measured on hCA II (Homo sapiens, UniProt P00918).

[Q] # query: Ki of entry O=[N+]([O-])c1ccc(S(=O)(=O)NCCCn2ccnc2)cc1
[A] > 50 µM

[Q] Ok, now O=S(=O)(NCCCn1ccnc1)c1ccc(F)cc1
[A] > 10 µM

[Q] Ok, now O=C(NCCCn1ccnc1)c1ccc(C(F)(F)F)cc1
[A] > 10 µM

[Q] Ok, now O=C(NCCCc1ccccc1)c1ccc([N+](=O)[O-])cc1 [Compound 10, 4-Nitro-N-(3-phenylpropyl)benzamide]
[A] > 50 µM

[Q] Ok, now O=C(NCCCn1ccnc1)c1ccc(-c2ccccc2)cc1
[A] > 50 µM

Others:
[Q] # query: Ki of entry CC(=O)NCCCn1ccnc1 [Compound 5, N-(3-(1H-imidazol-1-yl)propyl)acetamide]
[A] > 50 µM

[Q] Ok, now O=C(NCCCn1ccnc1)c1ccc([N+](=O)[O-])cc1
[A] > 10 µM

[Q] Ok, now O=C(NCCCn1ccnc1)c1ccc(F)cc1
[A] > 50 µM

[Q] Ok, now CS(=O)(=O)NCCCn1ccnc1
[A] > 10 µM

[Q] Ok, now O=S(=O)(NCCCn1ccnc1)c1ccc(C(F)(F)F)cc1
[A] > 50 µM

----------
- PROTOCOL_DESCRIPTION: Limit of solubility in the antibacterial test
- CONDITION: 37 °C
Recorded solubility by entry

[Q] # query: solubility of entry O=C(NCCCn1ccnc1)c1ccc([N+](=O)[O-])cc1
[A] 3 mg/mL

Others:
[Q] # query: solubility of entry O=C(NCCCn1ccnc1)c1ccc(C(F)(F)F)cc1
[A] 3 mg/mL

----------
Below are compounds with their pKi as measured on hCA I (Homo sapiens, UniProt P00915).
Sequence (P00915 whole entry): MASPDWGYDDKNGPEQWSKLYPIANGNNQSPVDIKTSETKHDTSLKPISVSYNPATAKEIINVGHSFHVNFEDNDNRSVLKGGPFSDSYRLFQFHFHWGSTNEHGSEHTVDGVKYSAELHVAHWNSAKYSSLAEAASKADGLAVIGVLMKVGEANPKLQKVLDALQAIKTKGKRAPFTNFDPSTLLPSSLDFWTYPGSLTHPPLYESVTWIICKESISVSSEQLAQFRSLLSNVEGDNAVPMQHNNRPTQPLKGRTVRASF
To interpret pKi, take it as minus log10 of a concentration measured in moles per litre.

Consider the following illustrative entries.
[Q] // lookup pKi | system=hCA I (Homo sapiens, UniProt P00915) | key= O=C(NCCCn1ccnc1)c1ccc(C(F)(F)F)cc1
[A] 5.59

[Q] Ok, now O=C(NCCCn1ccnc1)c1ccc([N+](=O)[O-])cc1
[A] 5.76

[Q] Ok, now CS(=O)(=O)NCCCn1ccnc1
[A] 6.41

Below: the item to evaluate.
[Q] // lookup pKi | system=hCA I (Homo sapiens, UniProt P00915) | key= O=S(=O)(NCCCn1ccnc1)c1ccc(F)cc1
[A] 5.77

----------
Below are compounds with their Ki as measured on VchCA (Vibrio cholerae α-carbonic anhydrase) (Vibrio cholerae).
Give just the number in nM; leave the unit off.

Consider the following illustrative entries.
[Q] # query: Ki of entry O=[N+]([O-])c1ccc(S(=O)(=O)NCCCn2ccnc2)cc1
[A] 6.2

[Q] Ok, now O=C(NCCCn1ccnc1)c1ccc(C(F)(F)F)cc1
[A] 10.4

[Q] Ok, now O=C(NCCCc1ccccc1)c1ccc([N+](=O)[O-])cc1 [Compound 10, 4-Nitro-N-(3-phenylpropyl)benzamide]
[A] 7.8

Others:
[Q] # query: Ki of entry O=S(=O)(NCCCn1ccnc1)c1ccc(F)cc1
[A] 8.5

[Q] Ok, now O=C(NCCCn1ccnc1)c1ccc(F)cc1
[A] 9.1

----------
Recorded melting point by entry

[Q] # query: melting point of entry O=S(=O)(NCCCn1ccnc1)c1ccc(C(F)(F)F)cc1
[A] 127 to 128 °C

[Q] Ok, now O=[N+]([O-])c1ccc(S(=O)(=O)NCCCn2ccnc2)cc1
[A] 140 to 141 °C

Below: the item to evaluate.
[Q] # query: melting point of entry O=C(NCCCn1ccnc1)c1ccc(C(F)(F)F)cc1
[A] 106 to 107 °C

----------
Below are compounds with their Ki as measured on hCA I (Homo sapiens).

[Q] # query: Ki of entry O=S(=O)(NCCCn1ccnc1)c1ccc(C(F)(F)F)cc1
[A] > 50 µM

----------
Below are molecules with their Ki as measured on VchCA (Vibrio cholerae α-carbonic anhydrase) (Vibrio cholerae, UniProt Q9KMP6).
Sequence (Q9KMP6 entry or part of it): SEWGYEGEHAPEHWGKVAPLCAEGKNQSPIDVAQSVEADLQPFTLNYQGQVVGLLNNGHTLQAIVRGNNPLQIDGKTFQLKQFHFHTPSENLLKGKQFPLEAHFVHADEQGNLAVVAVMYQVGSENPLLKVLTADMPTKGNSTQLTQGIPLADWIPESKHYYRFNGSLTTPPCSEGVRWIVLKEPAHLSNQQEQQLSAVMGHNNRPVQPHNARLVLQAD
Give just the number in nM; leave the unit off.

Consider the following illustrative entries.
[Q] # query: Ki of entry O=C(NCCCn1ccnc1)c1ccc([N+](=O)[O-])cc1 [Compound 8]
[A] 11

[Q] Ok, now O=S(=O)(NCCCn1ccnc1)c1ccc(C(F)(F)F)cc1 [Compound 3]
[A] 6.4

[Q] Ok, now O=C(NCCCn1ccnc1)c1ccc(-c2ccccc2)cc1 [Compound 9]
[A] 5.4

Others:
[Q] # query: Ki of entry CS(=O)(=O)NCCCn1ccnc1 [Compound 1]
[A] 10.9

[Q] Ok, now CC(=O)NCCCn1ccnc1 [Compound 5, N-(3-(1H-imidazol-1-yl)propyl)acetamide]
[A] 39.2
